The measurements presented in this section are drawn from patent US8129399B2.

- test_target: Aurora-2 (Aurora A) (Homo sapiens, UniProt O14965)
- Sequence (O14965 whole entry): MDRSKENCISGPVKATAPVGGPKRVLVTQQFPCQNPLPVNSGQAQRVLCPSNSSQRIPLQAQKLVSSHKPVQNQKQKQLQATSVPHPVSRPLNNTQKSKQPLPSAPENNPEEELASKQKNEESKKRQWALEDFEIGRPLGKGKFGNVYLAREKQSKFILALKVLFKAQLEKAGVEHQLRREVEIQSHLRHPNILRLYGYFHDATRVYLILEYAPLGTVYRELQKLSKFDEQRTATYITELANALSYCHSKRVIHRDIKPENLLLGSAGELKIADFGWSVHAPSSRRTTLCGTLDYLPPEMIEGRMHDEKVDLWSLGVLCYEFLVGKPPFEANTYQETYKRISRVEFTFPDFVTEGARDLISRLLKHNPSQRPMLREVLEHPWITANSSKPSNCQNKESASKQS
- method: Aurora-2 (Aurora A) inhibition assay, coupled enzyme
- Type: biochemical
- conditions_used: 400 μM ATP, 40 nM Aurora-2; read-out: Aurora A Ki
In this section we review reported Ki values for a set of compounds.
Use pM as the unit, but write only the number.

- structure_notation: "CCC(=O)Nc1ccc(Sc2nc(Nc3cc(C)[nH]n3)cc(N3CC(F)(C4CC4)C3)n2)cc1"
  uom: "pM"
  test_result: 1000

Record request: Ki value, item "Cc1cc(Nc2cc(N3CC(F)(C4CC4)C3)nc(Sc3ccc(NC(=O)C4CC4)cc3)n2)n[nH]1"
1100

Can you look up the measured Ki of "CCC(=O)Nc1ccc(Sc2nc(Nc3cc(C)n[nH]3)cc(N3CC(O)(C(C)C)C3)n2)cc1" for me?
1200

Which value of Ki has been reported for "CCC(=O)Nc1ccc(Sc2nc(Nc3cc(C)n[nH]3)cc(N3CC(O)(C4CCCC4)C3)n2)cc1" in the records?
670

* * *

- test_target: MLK1 (Homo sapiens)
- method: MLK1 inhibition screen
- Type: biochemical
- conditions_used: Table 5; ATP at or close to Km
readout_label: IC50
Express your answer as a number followed by its unit.

Which IC50 value is on record for "Cc1cc(Nc2cc(N3CC(F)(C4CC4)C3)nc(Sc3ccc(NC(=O)CC(F)(F)F)cc3)n2)[nH]n1" ?
0.027 µM

* * *

- test_target: MLK1 (Homo sapiens, UniProt P80192)
- Sequence (P80192 whole entry, species assumed): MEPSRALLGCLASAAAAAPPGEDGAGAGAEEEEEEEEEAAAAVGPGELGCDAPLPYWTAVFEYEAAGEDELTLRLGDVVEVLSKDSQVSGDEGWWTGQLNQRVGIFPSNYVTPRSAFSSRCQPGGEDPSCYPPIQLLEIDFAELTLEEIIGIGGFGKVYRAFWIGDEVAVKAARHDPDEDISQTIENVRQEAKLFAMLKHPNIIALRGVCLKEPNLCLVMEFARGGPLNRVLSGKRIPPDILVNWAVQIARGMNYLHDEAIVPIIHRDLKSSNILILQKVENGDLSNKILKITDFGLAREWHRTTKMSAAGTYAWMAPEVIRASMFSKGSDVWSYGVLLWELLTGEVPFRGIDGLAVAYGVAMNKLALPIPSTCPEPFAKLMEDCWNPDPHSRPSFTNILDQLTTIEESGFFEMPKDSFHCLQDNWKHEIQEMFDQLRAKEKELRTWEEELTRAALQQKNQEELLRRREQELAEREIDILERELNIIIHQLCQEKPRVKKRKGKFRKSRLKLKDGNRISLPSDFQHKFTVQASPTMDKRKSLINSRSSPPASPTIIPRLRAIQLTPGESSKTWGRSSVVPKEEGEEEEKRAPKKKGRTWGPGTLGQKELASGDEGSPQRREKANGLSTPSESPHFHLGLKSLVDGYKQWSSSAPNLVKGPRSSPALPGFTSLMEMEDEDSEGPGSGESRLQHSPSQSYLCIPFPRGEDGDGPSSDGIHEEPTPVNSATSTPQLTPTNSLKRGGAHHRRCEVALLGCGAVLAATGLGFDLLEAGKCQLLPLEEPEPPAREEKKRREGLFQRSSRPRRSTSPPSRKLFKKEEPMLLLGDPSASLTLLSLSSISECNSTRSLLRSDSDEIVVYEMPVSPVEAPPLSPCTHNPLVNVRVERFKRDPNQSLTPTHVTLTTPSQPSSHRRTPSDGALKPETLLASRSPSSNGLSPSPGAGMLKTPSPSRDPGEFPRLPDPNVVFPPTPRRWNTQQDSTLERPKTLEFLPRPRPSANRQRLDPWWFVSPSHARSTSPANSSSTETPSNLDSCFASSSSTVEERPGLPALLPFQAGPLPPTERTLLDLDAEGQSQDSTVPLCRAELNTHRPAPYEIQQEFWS
- method: MLK1 inhibition screen
- Assay type: biochemical
- conditions_used: Table 6, introduced as Ki values; ATP at or close to Km
readout_label: pIC50
Conceptually, pIC50 converts a concentration in mol/L into minus its log10.

Could you share what pIC50 was measured for "Cc1cc(Nc2cc(N3CC(F)(C4CC4)C3)nc(Sc3ccc(NC(=O)CC(F)(F)F)cc3)n2)[nH]n1" , tested on MLK1 (Homo sapiens, UniProt P80192)?
7.85

* * *

Here the recorded pKi is given for each entry.
- test_target: JAK-2 (Homo sapiens)
// pKi here means minus log10 of the molar concentration (mol/L)

- compound: "Cc1cc(Nc2cc(N3CC(O)(C4CC4)C3)nc(Sc3ccc(NC(=O)C4CC4)cc3F)n2)[nH]n1"
  pKi: 7.82
- compound: "Cc1cc(Nc2cc(N3CC(F)(C4CC4)C3)nc(Sc3ccc(NC(=O)C4CC4(F)F)cc3)n2)[nH]n1 (stereo not shown)"
  pKi: 7.29
- compound: "CCC(=O)Nc1ccc(Sc2nc(Nc3cc(C)n[nH]3)cc(N3CC(O)(C4CC4)C3)n2)cc1"
  pKi: 7.59

Now, please, on to the next compound.
API: value(readout=pKi, system=JAK-2 (Homo sapiens)) for record "CCC(=O)Nc1ccc(Sc2nc(Nc3cc(C)n[nH]3)cc(N3CC(O)(C4CCCC4)C3)n2)cc1"
7.47

* * *

- test_target: JAK3 (Homo sapiens, UniProt P52333)
- Sequence (P52333 1-1124): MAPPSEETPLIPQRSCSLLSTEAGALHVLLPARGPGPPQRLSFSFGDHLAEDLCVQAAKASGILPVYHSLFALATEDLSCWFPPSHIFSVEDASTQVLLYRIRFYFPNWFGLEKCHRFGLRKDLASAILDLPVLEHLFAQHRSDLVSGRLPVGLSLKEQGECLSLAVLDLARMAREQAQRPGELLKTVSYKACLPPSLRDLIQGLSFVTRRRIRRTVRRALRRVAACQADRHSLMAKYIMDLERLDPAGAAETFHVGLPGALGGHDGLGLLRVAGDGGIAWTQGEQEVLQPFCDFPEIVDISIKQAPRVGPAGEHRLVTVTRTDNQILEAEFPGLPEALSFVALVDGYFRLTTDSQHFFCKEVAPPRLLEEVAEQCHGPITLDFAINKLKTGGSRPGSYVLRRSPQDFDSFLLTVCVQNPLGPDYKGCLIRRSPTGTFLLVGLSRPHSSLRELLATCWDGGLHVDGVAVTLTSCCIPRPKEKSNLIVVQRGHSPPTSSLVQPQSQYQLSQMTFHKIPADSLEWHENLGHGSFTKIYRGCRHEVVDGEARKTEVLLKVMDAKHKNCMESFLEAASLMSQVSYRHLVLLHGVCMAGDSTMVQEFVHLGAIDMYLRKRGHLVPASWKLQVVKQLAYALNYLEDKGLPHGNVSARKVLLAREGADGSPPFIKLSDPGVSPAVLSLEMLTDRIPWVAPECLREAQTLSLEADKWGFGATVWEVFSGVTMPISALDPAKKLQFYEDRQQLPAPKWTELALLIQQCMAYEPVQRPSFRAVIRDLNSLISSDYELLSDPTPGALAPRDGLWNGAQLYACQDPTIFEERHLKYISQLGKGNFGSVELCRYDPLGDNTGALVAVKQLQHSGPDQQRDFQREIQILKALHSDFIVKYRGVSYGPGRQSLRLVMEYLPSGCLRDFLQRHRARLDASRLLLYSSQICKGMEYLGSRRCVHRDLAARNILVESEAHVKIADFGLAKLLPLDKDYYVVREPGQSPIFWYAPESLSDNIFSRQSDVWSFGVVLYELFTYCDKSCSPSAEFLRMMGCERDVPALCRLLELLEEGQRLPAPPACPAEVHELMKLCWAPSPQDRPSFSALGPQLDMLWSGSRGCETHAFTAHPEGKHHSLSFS
readout_label: Ki (nM)
Express your answer in nM, writing the number without its unit.

// below: answered compounds
- compound: "CCC(=O)Nc1ccc(Sc2nc(Nc3cc(C)n[nH]3)cc(N3CC(O)(C4CCCC4)C3)n2)cc1"
  test_target: "JAK3 (Homo sapiens, UniProt P52333)"
  uom: "nM"
  Ki: 150
- compound: "Cc1cc(Nc2cc(N3CC(O)(C4CC4)C3)nc(Sc3ccc(NC(=O)C4CC4(F)F)cc3)n2)[nH]n1 (centres unmarked)"
  test_target: "JAK3 (Homo sapiens, UniProt P52333)"
  uom: "nM"
  Ki: 28
- compound: "Cc1cc(Nc2cc(N3CC(O)(C4CC4)C3)nc(Sc3ccc(NC(=O)C4CC4)cc3F)n2)[nH]n1"
  test_target: "JAK3 (Homo sapiens, UniProt P52333)"
  uom: "nM"
  Ki: 56
- compound: "Cc1cc(Nc2cc(N3CC(O)(C4CC4)C3)nc(Sc3ccc(NC(=O)C4CCCC4)cc3)n2)[nH]n1"
  test_target: "JAK3 (Homo sapiens, UniProt P52333)"
  uom: "nM"
  Ki: 150

Item Cc1cc(Nc2cc(N3CC(F)(C4CC4)C3)nc(Sc3ccc(NC(=O)C4CC4(F)F)cc3)n2)[nH]n1 (centres unmarked) has what recorded Ki?
110

Which Ki value is on record for "Cc1cc(Nc2cc(N3CC(F)(C4CC4)C3)nc(Sc3ccc(NC(=O)CC(F)(F)F)nc3)n2)[nH]n1" ?
100

Form field: reported Ki of "CCC(=O)Nc1ccc(Sc2nc(Nc3cc(C)n[nH]3)cc(N3CC(O)(C(C)C)C3)n2)cc1"
100

Fill in: Ki of "CCC(=O)Nc1ccc(Sc2nc(Nc3cc(C4CC4)[nH]n3)cc(N3CC(O)(C4CC4)C3)n2)cc1" is ___
37

Quick one: Ki of CCC(=O)Nc1ccc(Sc2nc(Nc3cc(C)n[nH]3)cc(N3CC(O)(C(C)CC)C3)n2)cc1 (centres unmarked) ?
190

* * *

- test_target: JAK-2 (Homo sapiens, UniProt O60674)
- Sequence (O60674 whole entry, species assumed): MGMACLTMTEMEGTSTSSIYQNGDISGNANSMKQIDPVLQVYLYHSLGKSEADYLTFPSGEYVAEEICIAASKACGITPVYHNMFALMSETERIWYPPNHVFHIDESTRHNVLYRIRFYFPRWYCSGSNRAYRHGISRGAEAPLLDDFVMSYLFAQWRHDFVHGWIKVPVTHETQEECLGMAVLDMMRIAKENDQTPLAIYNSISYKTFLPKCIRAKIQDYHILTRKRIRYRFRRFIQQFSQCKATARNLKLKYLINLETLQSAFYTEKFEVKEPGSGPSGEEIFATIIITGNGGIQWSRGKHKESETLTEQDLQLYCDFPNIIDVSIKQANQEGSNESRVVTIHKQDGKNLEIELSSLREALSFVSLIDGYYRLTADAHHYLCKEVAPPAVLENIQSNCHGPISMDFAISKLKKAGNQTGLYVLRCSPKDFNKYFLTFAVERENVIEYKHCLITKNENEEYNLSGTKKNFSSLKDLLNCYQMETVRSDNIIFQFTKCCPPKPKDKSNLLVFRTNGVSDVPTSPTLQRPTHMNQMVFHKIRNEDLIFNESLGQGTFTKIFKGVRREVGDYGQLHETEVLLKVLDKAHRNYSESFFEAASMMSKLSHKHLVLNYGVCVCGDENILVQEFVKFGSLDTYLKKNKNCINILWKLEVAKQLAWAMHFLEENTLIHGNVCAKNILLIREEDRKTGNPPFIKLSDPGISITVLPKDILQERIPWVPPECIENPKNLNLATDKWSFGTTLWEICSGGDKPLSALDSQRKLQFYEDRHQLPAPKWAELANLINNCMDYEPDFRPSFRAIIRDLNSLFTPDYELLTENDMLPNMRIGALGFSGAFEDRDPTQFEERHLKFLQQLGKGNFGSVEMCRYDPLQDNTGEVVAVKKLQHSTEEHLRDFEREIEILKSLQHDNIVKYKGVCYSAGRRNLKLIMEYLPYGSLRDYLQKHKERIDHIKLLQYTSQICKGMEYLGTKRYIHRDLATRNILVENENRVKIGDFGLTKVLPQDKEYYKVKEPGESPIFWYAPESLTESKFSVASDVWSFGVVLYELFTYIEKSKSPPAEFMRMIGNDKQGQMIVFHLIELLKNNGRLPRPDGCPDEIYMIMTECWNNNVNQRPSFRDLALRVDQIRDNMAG
readout_label: log10 of Ki (log10 of the value in µM)
Units before log transform: µM; reported quantity: Ki; transform: log10.

What measured log10 of Ki is associated with "CCC(=O)Nc1ccc(Sc2nc(Nc3cc(C)n[nH]3)cc(N3CC(O)(C(C)C)C3)n2)cc1" on JAK-2 (Homo sapiens, UniProt O60674)?
-1.59

Provide value of log10 of Ki for this record tested with JAK-2 (Homo sapiens, UniProt O60674): Cc1cc(Nc2cc(N3CC(O)(C4CC4)C3)nc(Sc3ccc(NC(=O)C4CC4(F)F)cc3)n2)[nH]n1 (centres unmarked)
-2.54

Notebook entry, JAK-2 (Homo sapiens, UniProt O60674) assay: log10 of Ki of "Cc1cc(Nc2cc(N3CC(F)(C4CC4)C3)nc(Sc3ccc(NC(=O)C4CC4)cc3F)n2)n[nH]1" = ?
-0.44

Reported log10 of Ki for JAK-2 (Homo sapiens, UniProt O60674), given "Cc1cc(Nc2cc(N3CC(O)(C4CC4)C3)nc(Sc3ccc(NC(=O)C4CCCC4)cc3)n2)[nH]n1" ?
-1.66

Hi! What's the reported log10 of Ki for "Cc1cc(Nc2cc(N3CC(F)(C4CC4)C3)nc(Sc3ccc(NC(=O)C4CC4)cc3)n2)n[nH]1" on JAK-2 (Homo sapiens, UniProt O60674)?
-0.96

Enter reported log10 of Ki observed with JAK-2 (Homo sapiens, UniProt O60674) for "Cc1cc(Nc2cc(N3CC(F)(C4CC4)C3)nc(Sc3ccc(NC(=O)CC4CC4)cc3)n2)[nH]n1"
-0.89

Request - read-out log10 of Ki | tested on JAK-2 (Homo sapiens, UniProt O60674) | compound CCC(=O)Nc1ccc(Sc2nc(Nc3cc(C)n[nH]3)cc(N3CC(O)(C(C)CC)C3)n2)cc1 (centres unmarked)
-1.36

Field: log10 of Ki (JAK-2 (Homo sapiens, UniProt O60674)). Entry: "O=C(Nc1ccc(Sc2nc(Nc3cc(C4CC4)[nH]n3)cc(N3CC(O)(C4CC4)C3)n2)cc1)C1CC1"
-1.27
